Target: BRM (Homo sapiens, UniProt P51531)
Construct: made in house; host or cells: High Five insect cells
Sequence (P51531 whole entry): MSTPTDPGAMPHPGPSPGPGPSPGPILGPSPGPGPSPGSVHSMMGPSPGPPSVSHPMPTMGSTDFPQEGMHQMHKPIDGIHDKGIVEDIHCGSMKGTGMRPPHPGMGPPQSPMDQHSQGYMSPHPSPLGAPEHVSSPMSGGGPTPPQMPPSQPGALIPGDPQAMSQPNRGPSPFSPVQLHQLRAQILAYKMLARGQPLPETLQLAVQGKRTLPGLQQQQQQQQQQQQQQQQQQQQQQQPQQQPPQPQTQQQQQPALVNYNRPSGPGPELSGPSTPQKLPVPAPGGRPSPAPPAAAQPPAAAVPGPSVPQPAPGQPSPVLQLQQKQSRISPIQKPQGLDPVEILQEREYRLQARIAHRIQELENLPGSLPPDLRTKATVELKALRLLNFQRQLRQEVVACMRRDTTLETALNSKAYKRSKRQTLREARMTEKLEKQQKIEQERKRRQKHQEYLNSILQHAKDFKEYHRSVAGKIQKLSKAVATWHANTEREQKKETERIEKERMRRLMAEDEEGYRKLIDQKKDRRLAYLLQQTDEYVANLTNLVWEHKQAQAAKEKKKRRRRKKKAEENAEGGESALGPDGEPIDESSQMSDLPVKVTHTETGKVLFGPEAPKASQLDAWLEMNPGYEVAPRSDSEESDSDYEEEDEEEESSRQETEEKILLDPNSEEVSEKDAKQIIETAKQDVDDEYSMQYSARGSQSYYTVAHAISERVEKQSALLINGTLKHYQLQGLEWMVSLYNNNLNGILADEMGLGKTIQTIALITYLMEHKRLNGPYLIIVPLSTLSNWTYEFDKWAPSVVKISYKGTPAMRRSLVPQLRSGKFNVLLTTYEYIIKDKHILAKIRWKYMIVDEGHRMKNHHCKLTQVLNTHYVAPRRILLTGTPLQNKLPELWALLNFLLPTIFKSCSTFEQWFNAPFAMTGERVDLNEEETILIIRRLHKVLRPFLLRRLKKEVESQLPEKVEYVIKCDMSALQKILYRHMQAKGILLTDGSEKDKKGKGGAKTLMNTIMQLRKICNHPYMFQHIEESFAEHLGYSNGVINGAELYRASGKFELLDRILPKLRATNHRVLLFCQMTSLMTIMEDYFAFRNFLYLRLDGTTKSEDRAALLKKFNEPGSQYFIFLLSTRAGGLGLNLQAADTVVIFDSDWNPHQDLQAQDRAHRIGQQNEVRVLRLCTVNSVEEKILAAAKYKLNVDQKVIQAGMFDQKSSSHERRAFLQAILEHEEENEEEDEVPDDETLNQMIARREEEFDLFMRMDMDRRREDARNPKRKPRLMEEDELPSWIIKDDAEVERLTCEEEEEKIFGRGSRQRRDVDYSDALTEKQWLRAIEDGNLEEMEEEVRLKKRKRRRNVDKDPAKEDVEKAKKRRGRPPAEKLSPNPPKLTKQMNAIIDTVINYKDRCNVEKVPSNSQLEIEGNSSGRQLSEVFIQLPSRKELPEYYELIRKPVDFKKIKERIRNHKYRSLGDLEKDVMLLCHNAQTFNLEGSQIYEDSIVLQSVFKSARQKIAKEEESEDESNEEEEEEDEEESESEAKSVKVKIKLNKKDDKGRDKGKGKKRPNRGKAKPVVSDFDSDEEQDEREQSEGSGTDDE
Assay: ATPase catalytic activity assay (ADP-Glo), BRM
Format: biochemical
Settings: ATPase assay, selectivity BRG1/BRM, Table 10
measurement-kind: Ratio (BRG1 IC50 (μM) divided by BRM IC50 (μM))

smiles-str	quantitative-readout
O=C(NCc1cc2cc(N3CCOc4cc(C5CC5)cnc43)ccc2cn1)c1cc(F)c2c(c1)S(=O)(=O)[C@@H](F)COC2	23.22
O=C(NCc1cc2nc(-c3cccc(C4CC4)n3)ccc2cn1)c1cc(F)c2c(c1)S(=O)(=O)[C@@H](F)CCO2	23.94

P. O=C(NCc1cc2nc(N3CCOc4cc(N5C[C@H](F)[C@@H](F)C5)cnc43)ccc2cn1)c1cc(F)c2c(c1)S(=O)(=O)[C@@H](F)CCO2
Q. COc1cnc2c(c1)CCCN2c1ccc2cnc(CNC(=O)c3cc(F)c4c(c3)S(=O)(=O)[C@@H](F)CCO4)cc2c1
Hello, I am sorting some records. Could you say if P or Q has the smaller Ratio (BRG1 IC50 (μM) divided by BRM IC50 (μM)) value? Your choice should be expressed through its label.
Q

Origin of the recorded values: patent US12139487B2
